- ASSAY SYSTEM: T1, human IL-2Rα subunit (human, UniProt P01589 22-213, limits assumed)
- T1 construct: also called CD25
- T1 sequence (looked up): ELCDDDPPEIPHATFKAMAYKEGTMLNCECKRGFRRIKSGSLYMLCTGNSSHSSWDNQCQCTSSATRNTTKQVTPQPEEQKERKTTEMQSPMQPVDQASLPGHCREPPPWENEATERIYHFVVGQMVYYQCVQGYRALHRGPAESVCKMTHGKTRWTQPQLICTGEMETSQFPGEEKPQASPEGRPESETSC
Please go through the items and note down their IC50.

[[record]]
binder = "IRCRYEKQSGICLF [SEQ ID NO 244]"
measured = "< 100 µM"


Dear reader, for each entry below, please note its IC50.
1. RRFCLRSEPTACWYV [SEQ ID NO 68]
2. VTCYRAVPGVEAYCFS [SEQ ID NO 212]
3. EWECLFLPGRKGCTLF [SEQ ID NO 113]

RESULT:
["< 100 µM", "< 100 µM", "< 100 µM"]

Sourced from patent US20200399314A1
